molecular target: human orexin 1 receptor (Homo sapiens (Human), UniProt O43613); assay: Human orexin 1 receptor radioligand binding (competitive binding, CHO membranes); conditions: read-out: hOX1 Ki
Sequence (O43613 whole entry): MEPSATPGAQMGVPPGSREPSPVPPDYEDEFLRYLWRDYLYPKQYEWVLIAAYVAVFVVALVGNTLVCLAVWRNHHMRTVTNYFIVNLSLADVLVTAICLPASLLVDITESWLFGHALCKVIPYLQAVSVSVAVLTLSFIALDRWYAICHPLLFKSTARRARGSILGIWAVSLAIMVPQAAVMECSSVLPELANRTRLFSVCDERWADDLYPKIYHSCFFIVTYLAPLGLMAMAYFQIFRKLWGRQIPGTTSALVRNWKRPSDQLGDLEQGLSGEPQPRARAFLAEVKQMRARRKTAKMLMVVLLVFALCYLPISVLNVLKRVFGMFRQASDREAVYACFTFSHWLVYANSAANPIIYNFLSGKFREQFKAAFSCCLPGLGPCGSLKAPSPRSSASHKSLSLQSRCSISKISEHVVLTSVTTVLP
Endpoint: Ki (nM)

>>> df
                                    molecule  reported
 0  Cc1ccc(-c2ncccn2)c(C(=O)N2[C@@H]3CC[C@H]2[C@H](Nc2ccc(C(F)(F)F)cn2)C3)n1 [Example 379]        24
 1  O=C(c1cccc(F)c1-c1ncc(F)cn1)N1[C@@H]2CC[C@H]1[C@H](Nc1ccc(C(F)(F)F)cn1)C2 [Example 375]        89
 2  Cc1ccc(-c2ncccn2)c(C(=O)N2[C@@H]3CC[C@H]2[C@H](Nc2cnc(C(F)(F)F)cn2)C3)n1 [Example 403]        67
 3  O=C(c1c(F)cccc1-c1ncccn1)N1[C@@H]2CC[C@H]1[C@H](Nc1ccc(C(F)(F)F)cn1)C2 [Example 372]        13
 4  Cc1cnc(C(=O)N2[C@@H]3CC[C@H]2[C@H](Nc2cnc(C(F)(F)F)cn2)C3)c(-c2ncccn2)c1 [Example 405]        59
 5  O=C(c1cccc(F)c1-c1ccccn1)N1[C@@H]2CC[C@H]1[C@H](Nc1cnc(C(F)(F)F)cn1)C2 [Example 408]        19
 6  O=C(c1ccccc1-c1ncc(F)cn1)N1[C@@H]2CC[C@H]1[C@H](Nc1ccc(C(F)(F)F)cn1)C2 [Example 374]        31
 7  O=C(c1cccc(F)c1-c1ncccn1)N1C2CCC1C(Nc1ccc(Br)cn1)C2 (centres unmarked) [Example 303]        16
 8  Cc1ccc(-c2ncccn2)c(C(=O)N2[C@@H]3CC[C@H]2[C@H](Nc2ncc(C(F)(F)F)cc2F)C3)n1 [Example 456]        48
 9  Cc1cccc(C(=O)N2[C@@H]3CC[C@H]2[C@H](Nc2ncc(Br)cn2)C3)c1-c1ncccn1 [Example 316]        59
10  O=C(c1ccccc1-c1ncc(F)cn1)N1[C@@H]2CC[C@H]1[C@H](Nc1ncc(C(F)(F)F)cc1Cl)C2 [Example 385]        44
11  Cc1cccc(C(=O)N2[C@@H]3CC[C@H]2[C@H](Nc2ccc(Br)cn2)C3)c1-n1nccn1 [Example 306]         4
12  Cc1cnc(C(=O)N2[C@@H]3CC[C@H]2[C@H](Nc2ccc(C(F)(F)F)cn2)C3)c(-c2ncccn2)c1 [Example 380]        48
13  O=C(c1cccc(Cl)c1-c1ncccn1)N1[C@@H]2CC[C@H]1[C@H](Nc1cnc(C(F)(F)F)cn1)C2 [Example 300]         9
